Origin of values: patent US6649166

Biological target: T1, HLA-DR molecule encoded by the allele HLA-DRB3*0101 (human)
T1 chain 1: not shown
T1 chain 2: not shown
Assay: competition ELISA, nonbiotinylated peptide against the biotinylated tracer of that DR molecule
Ends that are not written are not given here.

| binder | IC50 / µM |
| --- | --- |
| TERVRLVTRHIYNREE (not fully specified) [B1 21-36 (nonbiotinylated peptide)] | 35 |
